test: Cellular viability qHTS for adrenocortical cancer (ACC) cell line NCI-H295R (AID 1963990); settings: CellTiter-Glo ATP luminescence, 48 h; series mostly up to 46.1 µM; also: nearly all actives have a fitted effect of over 60% in size
Inconclusive results are not listed. Activity calls are given as the source filed them. Calls follow the shape of the dose curve; as a rule, active = well fitted cell-killing curve with a large enough effect; inconclusive = small, poorly fitted or top-dose-only effect; inactive = flat fitted curve, though single readings scatter.
Classes used: 1 for active, 0 for inactive

{"smilesStr": "Cn1c(Nc2ccc(C(F)(F)F)cc2)nc2cc(Oc3ccnc(-c4ncc(C(F)(F)F)[nH]4)c3)ccc21", "classLabel": 0}
{"smilesStr": "COc1ccc(-n2nc(C(N)=O)c3c2C(=O)N(c2ccc(N4CCCCC4=O)cc2)CC3)cc1", "classLabel": 0}
{"smilesStr": "CCCCNc1ccc(C(=O)OCCN(C)C)cc1", "classLabel": 0}
{"smilesStr": "O=c1oc2c(C3OCCCO3)c(O)ccc2c2c1CNCC2", "classLabel": 0}
{"smilesStr": "CC[C@H](C)n1cc(C)c2c(C(=O)NCc3c(C)cc(C)[nH]c3=O)cc(-c3ccc(N4CCNCC4)nc3)cc21", "classLabel": 1}
{"smilesStr": "COc1ncc(Nc2ncc([C@H](C)N3CCN(S(C)(=O)=O)CC3)cc2-c2nc(C)nc(N)n2)cc1F", "classLabel": 1}
{"smilesStr": "CCn1cc(-c2ccnc3[nH]c(-c4cccc(CN(C)C)c4)cc23)c(-c2ccc(NC(=O)N(C)C)cc2)n1", "classLabel": 1}
{"smilesStr": "CC(C)c1cnn2c(NCc3ccccc3)cc(N[C@@H](CO)[C@H](O)CO)nc12", "classLabel": 1}
{"smilesStr": "C[C@@H](O)[C@@H]1NC(=O)[C@H](CCCCN)NC(=O)[C@@H](Cc2c[nH]c3ccccc23)NC(=O)[C@H](Cc2ccccc2)NC(=O)[C@@H](NC(=O)[C@H](N)Cc2ccccc2)CSSC[C@@H](C(=O)N[C@H](CO)[C@@H](C)O)NC1=O", "classLabel": 0}

====

assay: Viability qHTS for spleen associated tyrosine kinase inhibitor (SYKi) drug resistant MV4-11 cells (AID 1963824); conditions: SYKi-resistant MV4-11 viability, CellTiter-Glo, 72 h; series mostly up to 45 µM; also: nearly all actives have a fitted effect of over 35% in size
Results filed as inconclusive are left out. The source made the active and inactive calls. Calls follow the shape of the dose curve; as a rule, active = well fitted cell-killing curve with a large enough effect; inconclusive = small, poorly fitted or top-dose-only effect, or effect the other way; inactive = no such curve, though single readings can be large or run the other way.
Labels: y for active, n for inactive

{"molecule": "COc1cc2nc(N3CCN(C(=O)C4CCCO4)CC3)nc(N)c2cc1OC (stereo not given)", "classLabel": "n"}
{"molecule": "CC(C)(C)c1ccc(S(=O)(=O)Nc2ccc(Cl)cc2C(=O)c2cc[n+]([O-])cc2)cc1", "classLabel": "y"}
{"molecule": "COC(=O)c1sccc1S(=O)(=O)Nc1ccc(Nc2ccccc2)cc1OC", "classLabel": "y"}
{"molecule": "N#CCC(C1CCCC1)n1cc(-c2ncnc3[nH]ccc23)cn1 (stereo not given)", "classLabel": "y"}
{"molecule": "NC(=O)c1cnc2[nH]ccc2c1NC1C2CC3C[C@H]1CC(O)(C3)C2 (stereo not given in full)", "classLabel": "y"}

====

test: Cellular viability qHTS for adrenocortical cancer (ACC) cell line SW-13 (AID 1963989); conditions: SW-13 ACC cells viability, CellTiter-Glo, 48 h; hits give low values;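 also: cells grown in serum-free medium with ITS supplement; % is scaled to controls: 0 for no effect and ±100 for the full control effect; nearly all actives have a fitted effect of over 65% in size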
Results filed as inconclusive are left out.

{"compound": "CN1C(=O)c2ccccc2C1=O", "activity (max response) [%]": -9.75}
{"compound": "NC(=O)NC(=O)Cc1ccccc1", "activity (max response) [%]": -0.635}
{"compound": "Cn1cc(-c2ccc3nnc(C(F)(F)c4ccc5ncccc5c4)n3n2)cn1", "activity (max response) [%]": 3.57}
{"compound": "CCOc1ccc(NC(C)=O)cc1", "activity (max response) [%]": -8.62}
{"compound": "O=C(NCN1CCOCC1)c1cnccn1", "activity (max response) [%]": -5.4}
{"compound": "O=C(O)c1ccc(OCCN2CCCCC2)cc1", "activity (max response) [%]": 10.8}
{"compound": "COC(=O)N1CCN(Cc2cccc(NC(=O)Nc3ccc(C)nc3)c2F)CC1", "activity (max response) [%]": -16.4}
{"compound": "Cc1ccccc1N1C(=O)c2cc(S(N)(=O)=O)c(Cl)cc2NC1C (stereo not drawn)", "activity (max response) [%]": 17.3}
{"compound": "COc1cc(C(=O)OC(COCCC(C)C)CN2CCOCC2)cc(OC)c1OC (stereo not drawn)", "activity (max response) [%]": 9.82}
{"compound": "c1ccc2sc(SN3CCOCC3)nc2c1", "activity (max response) [%]": 3.28}
{"compound": "Cc1ccnc(NS(=O)(=O)c2ccc(N)cc2)n1", "activity (max response) [%]": 8.12}
{"compound": "CCN(CC)CC(=O)Nc1c(C)cccc1C", "activity (max response) [%]": 2.91}
{"compound": "CC(=O)N[C@H]1[C@H]([C@H](O)[C@H](O)CO)OC(C(=O)O)=C[C@@H]1N=C(N)N", "activity (max response) [%]": -7.79}

meta.source: PubChem BioAssay (NCATS)
